System: CCRF-CEM
test: Cytotoxicity against human CEM cells after 6 days by trypan blue assay
cond: 144 h
# IC50 values compiled below
readoutType: IC50 (µM)

[
  {
    "smilesCode": "Cc1cn([C@H]2C[C@H](N=[N+]=[N-])[C@@H](CO)O2)c(=O)[nH]c1=O",
    "scaleUnit": "µM",
    "observed": 56.1
  },
  {
    "smilesCode": "O=C(O)c1cc(Br)cc(C(=O)/C=C/c2ccc(Br)cc2)c1O",
    "scaleUnit": "µM",
    "observed": 27.5
  },
  {
    "smilesCode": "O=Cc1cc(Br)cc(C(=O)NCc2ccc(F)cc2)c1O",
    "scaleUnit": "µM",
    "observed": 40.2
  },
  {
    "smilesCode": "O=C(O)c1cc(Br)cc(C(=O)/C=C/c2ccc(Cl)cc2Cl)c1O",
    "scaleUnit": "µM",
    "observed": 23.8
  },
  {
    "smilesCode": "O=C(O)c1cc(Br)cc(C(=O)/C=C/c2ccc3sccc3c2)c1O",
    "scaleUnit": "µM",
    "observed": 20.7
  },
  {
    "smilesCode": "O=C(O)c1cc(Br)cc(C(=O)/C=C/c2c(Cl)ccc(Cl)c2Cl)c1O",
    "scaleUnit": "µM",
    "observed": 19
  }
]

====

experimentalTarget: UniProtKB Q7ZJM1
Sequence (Q7ZJM1 whole entry): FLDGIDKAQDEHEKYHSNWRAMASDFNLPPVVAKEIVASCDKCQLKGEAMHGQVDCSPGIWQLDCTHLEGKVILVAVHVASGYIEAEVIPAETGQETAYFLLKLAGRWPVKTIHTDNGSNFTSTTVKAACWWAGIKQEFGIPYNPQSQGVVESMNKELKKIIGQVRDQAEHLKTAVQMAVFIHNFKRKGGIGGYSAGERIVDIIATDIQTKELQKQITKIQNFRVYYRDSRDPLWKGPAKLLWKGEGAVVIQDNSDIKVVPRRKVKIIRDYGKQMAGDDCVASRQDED
test: Inhibition of Human immunodeficiency virus 1 integrase-mediated 3'-processing after 30 mins by polyacrylamide gel electrophoresis
# IC50 values compiled below

[
  {
    "smilesCode": "O=Cc1cc(Br)cc(C(=O)NCc2ccc(F)cc2)c1O",
    "scaleUnit": "µM",
    "valueComparator": ">",
    "IC50": 100
  },
  {
    "smilesCode": "O=C(O)c1cc(Br)cc(C(=O)/C=C/c2ccsc2)c1O",
    "scaleUnit": "µM",
    "valueComparator": "=",
    "IC50": 30
  },
  {
    "smilesCode": "O=C(O)c1cc(Br)cc(C(=O)/C=C/c2ccccc2OCc2ccccc2)c1O",
    "scaleUnit": "µM",
    "valueComparator": "=",
    "IC50": 21
  },
  {
    "smilesCode": "N#Cc1cc(Br)cc(C(=O)/C=C/c2c(Cl)ccc(Cl)c2Cl)c1O",
    "scaleUnit": "µM",
    "valueComparator": ">",
    "IC50": 100
  },
  {
    "smilesCode": "O=C(O)c1cc(F)cc(C(=O)/C=C/c2ccc(Cl)cc2)c1O",
    "scaleUnit": "µM",
    "valueComparator": "=",
    "IC50": 36
  },
  {
    "smilesCode": "O=C(O)c1cc(Br)cc(C(=O)/C=C/c2ccccc2F)c1O",
    "scaleUnit": "µM",
    "valueComparator": "=",
    "IC50": 74
  },
  {
    "smilesCode": "O=C(O)c1cc(Br)cc(C(=O)/C=C/c2ccc(Oc3ccc(Cl)cc3)cc2)c1O",
    "scaleUnit": "µM",
    "valueComparator": "=",
    "IC50": 22
  },
  {
    "smilesCode": "O=C(O)c1cc(Cl)cc(C(=O)/C=C/c2cc(Cl)ccc2Cl)c1O",
    "scaleUnit": "µM",
    "valueComparator": "=",
    "IC50": 75
  },
  {
    "smilesCode": "O=C(O)c1cc(F)cc(C(=O)/C=C/c2c(Cl)ccc(Cl)c2Cl)c1O",
    "scaleUnit": "µM",
    "valueComparator": "=",
    "IC50": 82
  },
  {
    "smilesCode": "O=C(O)c1cc(Cl)cc(C(=O)/C=C/c2ccc(Cl)cc2Cl)c1O",
    "scaleUnit": "µM",
    "valueComparator": ">",
    "IC50": 100
  },
  {
    "smilesCode": "COc1ccc(/C=C/C(=O)c2cc(Br)cc(C(=O)O)c2O)c(OC)c1OC",
    "scaleUnit": "µM",
    "valueComparator": "=",
    "IC50": 85
  },
  {
    "smilesCode": "O=C(O)c1cc(Br)cc(C(=O)/C=C/c2ccccc2Cl)c1O",
    "scaleUnit": "µM",
    "valueComparator": "=",
    "IC50": 52
  },
  {
    "smilesCode": "O=C(O)c1cc(F)cc(C(=O)/C=C/c2cc(Cl)cc(Cl)c2Cl)c1O",
    "scaleUnit": "µM",
    "valueComparator": "=",
    "IC50": 33
  },
  {
    "smilesCode": "O=C(O)c1cc(Br)cc(C(=O)/C=C/c2cccc(Cl)c2)c1O",
    "scaleUnit": "µM",
    "valueComparator": "=",
    "IC50": 45
  },
  {
    "smilesCode": "O=C(O)c1cc(Br)cc(C(=O)/C=C/c2cccc(Br)c2)c1O",
    "scaleUnit": "µM",
    "valueComparator": "=",
    "IC50": 19
  },
  {
    "smilesCode": "COc1ccc(/C=C/C(=O)c2cc(Br)cc(C(=O)O)c2O)cc1OC1CCCC1",
    "scaleUnit": "µM",
    "valueComparator": "=",
    "IC50": 100
  },
  {
    "smilesCode": "O=C(O)c1cc(Br)cc(C(=O)/C=C/c2ccc(I)cc2)c1O",
    "scaleUnit": "µM",
    "valueComparator": "=",
    "IC50": 69
  },
  {
    "smilesCode": "O=C(NCc1ccc(F)cc1)c1cc(Br)ccc1O",
    "scaleUnit": "µM",
    "valueComparator": ">",
    "IC50": 100
  },
  {
    "smilesCode": "O=C(O)c1cc(Cl)cc(C(=O)/C=C/c2cc(Cl)cc(Cl)c2Cl)c1O",
    "scaleUnit": "µM",
    "valueComparator": "=",
    "IC50": 55
  },
  {
    "smilesCode": "O=C(O)c1cc(Br)cc(C(=O)/C=C/c2cccc(Cl)c2Cl)c1O",
    "scaleUnit": "µM",
    "valueComparator": "=",
    "IC50": 58
  },
  {
    "smilesCode": "O=C(O)c1cc(Br)cc(C(=O)/C=C/c2ccc(Cl)c(Cl)c2)c1O",
    "scaleUnit": "µM",
    "valueComparator": "=",
    "IC50": 27
  },
  {
    "smilesCode": "COc1ccc(/C=C/C(=O)c2cc(Br)cc(C(=O)O)c2O)c(Cl)c1OC",
    "scaleUnit": "µM",
    "valueComparator": ">",
    "IC50": 100
  },
  {
    "smilesCode": "Cc1cccc(C(=O)NCc2ccc(F)cc2)c1O",
    "scaleUnit": "µM",
    "valueComparator": ">",
    "IC50": 100
  },
  {
    "smilesCode": "COc1cccc2c(/C=C/C(=O)c3cc(Br)cc(C(=O)O)c3O)cccc12",
    "scaleUnit": "µM",
    "valueComparator": "=",
    "IC50": 54
  },
  {
    "smilesCode": "CCOc1ccc2ccccc2c1/C=C/C(=O)c1cc(Br)cc(C(=O)O)c1O",
    "scaleUnit": "µM",
    "valueComparator": "=",
    "IC50": 92
  },
  {
    "smilesCode": "O=C(O)c1cc(Cl)cc(C(=O)/C=C/c2ccc(Cl)c(Cl)c2)c1O",
    "scaleUnit": "µM",
    "valueComparator": "=",
    "IC50": 87
  },
  {
    "smilesCode": "COc1cccc(/C=C/C(=O)c2cc(Br)cc(C(=O)O)c2O)c1OC",
    "scaleUnit": "µM",
    "valueComparator": "=",
    "IC50": 62
  },
  {
    "smilesCode": "O=C(O)c1cc(Cl)cc(C(=O)/C=C/c2c(Cl)ccc(Cl)c2Cl)c1O",
    "scaleUnit": "µM",
    "valueComparator": "=",
    "IC50": 77
  },
  {
    "smilesCode": "O=C(O)c1cc(Cl)cc(C(=O)/C=C/c2cccc(Cl)c2Cl)c1O",
    "scaleUnit": "µM",
    "valueComparator": "=",
    "IC50": 100
  },
  {
    "smilesCode": "O=C(O)c1cc(Br)cc(C(=O)/C=C/c2c(Cl)ccc(Cl)c2Cl)c1O",
    "scaleUnit": "µM",
    "valueComparator": "=",
    "IC50": 23
  },
  {
    "smilesCode": "O=C(O)c1cc(F)cc(C(=O)/C=C/c2cccc(Cl)c2Cl)c1O",
    "scaleUnit": "µM",
    "valueComparator": "=",
    "IC50": 55
  },
  {
    "smilesCode": "O=C(O)c1cc(Br)cc(C(=O)/C=C/c2cccc(OC(F)(F)F)c2)c1O",
    "scaleUnit": "µM",
    "valueComparator": ">",
    "IC50": 100
  },
  {
    "smilesCode": "Cc1cc(C)cc(/C=C/C(=O)c2cc(Br)cc(C(=O)O)c2O)c1",
    "scaleUnit": "µM",
    "valueComparator": ">",
    "IC50": 100
  },
  {
    "smilesCode": "O=C(O)c1cc(Cl)cc(C(=O)/C=C/c2ccc(Cl)cc2)c1O",
    "scaleUnit": "µM",
    "valueComparator": "=",
    "IC50": 85
  },
  {
    "smilesCode": "O=C(O)c1cc(Br)cc(C(=O)/C=C/c2c(Cl)cccc2Cl)c1O",
    "scaleUnit": "µM",
    "valueComparator": "=",
    "IC50": 52
  },
  {
    "smilesCode": "O=C(O)c1cc(Br)cc(C(=O)/C=C/c2cc(Cl)ccc2Cl)c1O",
    "scaleUnit": "µM",
    "valueComparator": "=",
    "IC50": 47
  },
  {
    "smilesCode": "O=C(O)c1cc(Br)cc(C(=O)/C=C/c2cc3c(cc2Cl)OCO3)c1O",
    "scaleUnit": "µM",
    "valueComparator": "=",
    "IC50": 79
  },
  {
    "smilesCode": "O=C(/C=C/c1cc(Br)cc([N+](=O)[O-])c1O)c1cc(Cl)cc(Cl)c1Cl",
    "scaleUnit": "µM",
    "valueComparator": ">",
    "IC50": 333
  },
  {
    "smilesCode": "O=C(O)c1cc(Br)cc(C(=O)/C=C/c2cccc(F)c2)c1O",
    "scaleUnit": "µM",
    "valueComparator": "=",
    "IC50": 71
  },
  {
    "smilesCode": "O=C(O)c1cc(F)cc(C(=O)CCc2cc(Cl)ccc2Cl)c1O",
    "scaleUnit": "µM",
    "valueComparator": ">",
    "IC50": 100
  },
  {
    "smilesCode": "O=C(O)c1cc(Br)cc(C(=O)/C=C/c2cccc([N+](=O)[O-])c2)c1O",
    "scaleUnit": "µM",
    "valueComparator": "=",
    "IC50": 49
  },
  {
    "smilesCode": "O=C(O)c1cc(Br)cc(C(=O)/C=C/c2ccccc2)c1O",
    "scaleUnit": "µM",
    "valueComparator": "=",
    "IC50": 75
  },
  {
    "smilesCode": "O=C(O)c1cc(Br)cc(C(=O)/C=C/c2ccc(Cl)cc2Cl)c1O",
    "scaleUnit": "µM",
    "valueComparator": "=",
    "IC50": 28
  }
]
